From: the supplement of paper PMC9446081

- Test system: Escherichia coli K-12 BW25113
- assay notes: relative growth (OD600 normalised to plate interquartile mean) (fraction); higher = less growth inhibition, active = 0.2 or less
- condition set: 50 µM; LB; incubation time: overnight (16-24 h)
The campaign covered roughly 39,000 compounds. About 220 (0.56%) showed activity. What follows is part of a selection rich in actives, with near analogues and random picks from the rest.

chemical string	relative growth
C[C@H](CO)N1C[C@H](C)[C@H](CN(C)S(=O)(=O)c2ccccc2F)Oc2ncc(C#Cc3ccccc3F)cc2C1=O	0.997 (inactive)
Cc1cn([C@H]2C[C@H](N=[N+]=[N-])[C@@H](CO)O2)c(=O)[nH]c1=O	0.048 (active)
CCCC#Cc1ccc2c(c1)O[C@H](CN(C)Cc1ccc3c(c1)OCO3)[C@H](C)CN([C@H](C)CO)S2(=O)=O	1.05 (inactive)
C[C@H](NC(=O)C[C@@H]1C=C[C@H](NC(=O)CN2CCOCC2)[C@H](CO)O1)c1ccccc1	1.02 (inactive)
O=[N+]([O-])c1ccc(O)c2ncccc12	0.0542 (active)
C[C@@H]1CN([C@@H](C)CO)C(=O)c2cc(-c3ccc(F)cc3)cnc2O[C@@H]1CN(C)C(=O)Cc1ccccn1	0.977 (inactive)
COc1ccccc1C#Cc1cnc2c(c1)C(=O)N([C@@H](C)CO)C[C@@H](C)[C@@H](CN(C)C(=O)c1ccc3c(c1)OCO3)O2	1.03 (inactive)
CO[C@@H]1CN(C)C(=O)c2ccc(NC(=O)C3CCOCC3)cc2OC[C@@H](C)N(CC2CCOCC2)C[C@H]1C	1.02 (inactive)
Fc1cccc2c(Cl)ccnc12	0.976 (inactive)
C[C@H]1CN([C@@H](C)CO)C(=O)c2cc(-c3ccc(C(=O)N(C)C)cc3)cnc2O[C@H]1CN(C)C(=O)c1ccncc1	0.964 (inactive)
O=C(NN=Cc1ccc([N+](=O)[O-])o1)c1ccc(O)cc1	0.973 (inactive)
CCn1cc(C(=O)O)c(=O)c2ccc(C)nc21	1.02 (inactive)
C[C@@H]1CN([C@@H](C)CO)S(=O)(=O)c2ccc(Br)cc2O[C@@H]1CN(C)S(=O)(=O)c1ccc(F)cc1	1.04 (inactive)
CCOC(=O)c1ccc(N2NC(=O)/C(=C/c3ccc([N+](=O)[O-])o3)C2=O)cc1	0.984 (inactive)
COc1ccc(NC(=O)N(C)C[C@@H]2Oc3c(NC(=O)CCCCCC(=O)Nc4ccccc4N)cccc3C(=O)N([C@H](C)CO)C[C@H]2C)cc1	1.01 (inactive)
NC(=O)NN=Cc1ccc([N+](=O)[O-])o1	0.0474 (active)
O=C(N/N=C/c1ccc(CO)o1)c1ccccn1	1 (inactive)
Cc1ccc(S(=O)(=O)N2C[C@@H](O)COC[C@H]3O[C@H](CC(=O)N[C@H]4CCN(Cc5ccccc5)C4)CC[C@@H]32)cc1	1.01 (inactive)
Cc1noc(C)c1NC(=O)Nc1ccc2c(c1)C(=O)N([C@@H](C)CO)C[C@@H](C)[C@@H](CN(C)C(=O)c1ccccc1)OCCCC[C@@H](C)O2	0.977 (inactive)
COc1ccc(S(=O)(=O)N(C)C[C@H]2OCCCC[C@@H](C)Oc3ccc(NC(=O)Nc4ccc(F)cc4)cc3C(=O)N([C@H](C)CO)C[C@@H]2C)cc1	1.07 (inactive)
O=C(O)c1cnc(N2CCCC2)nc1	1.03 (inactive)
Cc1cn2nc([C@@H]3CCCCN3C(=O)c3cc(Cl)ccc3NS(C)(=O)=O)cc2nc1N1CC[C@H](N)C1	0.981 (inactive)
NS(=O)(=O)c1ccc(O)c([N+](=O)[O-])c1	0.992 (inactive)
O=C(C[C@H]1C[C@H]2c3cc(NS(=O)(=O)c4ccc(F)cc4)ccc3O[C@H]2[C@H](CO)O1)NC1CCCC1	0.974 (inactive)
CCCCCCCCCCCCCCCC(=O)OC[C@@H](NC(=O)C(Cl)Cl)[C@H](O)c1ccc([N+](=O)[O-])cc1	1.03 (inactive)
Oc1c(Br)cc(Br)c2cccnc12	0.379 (inactive)
Cc1noc(C)c1NC(=O)Nc1ccc2c(c1)C(=O)N([C@@H](C)CO)C[C@@H](C)[C@H](CN(C)S(=O)(=O)c1ccc(F)cc1)OCCCC[C@H](C)O2	1.03 (inactive)
Oc1c(I)cc(Cl)c2cccnc12	0.463 (inactive)
COc1cc(N2CCC3(CC2)CNC(=O)CO3)ncn1	0.968 (inactive)
O=C(C[C@@H]1CC[C@@H]2[C@H](COC[C@@H](O)CN2S(=O)(=O)c2cccc(Cl)c2)O1)N1CCOCC1	1.01 (inactive)
NC(=O)[C@@H]1CC[C@@H]2CN1C(=O)N2OS(=O)(=O)O	0.19 (active)
NCCONC(=O)[C@@H]1CC[C@@H]2CN1C(=O)N2OS(=O)(=O)O	0.0923 (active)
NC(=O)N/N=C/c1ccc([N+](=O)[O-])o1	0.0425 (active)
C[C@@H]1CN([C@H](C)CO)C(=O)Cc2cc(NC(=O)C3CCCCC3)ccc2O[C@H]1CN(C)Cc1ccc(C(=O)Nc2ccccc2N)cc1	0.979 (inactive)
Cc1noc(C)c1NC(=O)Nc1ccc2c(c1)C(=O)N([C@@H](C)CO)C[C@@H](C)[C@H](CN(C)C(=O)Nc1ccc(C(F)(F)F)cc1)OCCCC[C@H](C)O2	1.02 (inactive)

----------
- System: Escherichia coli K-12 BW25113
- assay notes: relative growth (OD600 normalised to plate interquartile mean) (fraction); higher = less growth inhibition, active = 0.2 or less
- condition set: 50 µM; LB; incubation time: overnight (16-24 h)
Out of some 39,000 compounds screened, about 220 (0.56%) showed activity. This is one part of a sample in which actives are shown more often than they occur.
Below: a set of entries, each annotated with reported relative growth.
endpoint label: relative growth

compound	reported
C=CC1=C(C(=O)O)N2C(=O)C(NC(=O)C(=NO)c3csc(N)n3)C2SC1 (stereo not drawn)	0.05 (active)
C=CC1=C(C(=O)O)N2C(=O)C(NC(=O)C(=NOCC(=O)O)c3csc(N)n3)C2SC1 (stereo not drawn)	1.01 (inactive)
C[C@@H]1CN([C@@H](C)CO)C(=O)CCCn2nncc2CO[C@@H]1CN(C)S(=O)(=O)c1ccc(Oc2ccccc2)cc1	1.02 (inactive)
C/C=C/C1=C(C(=O)O)N2C(=O)[C@@H](NC(=O)[C@H](N)c3ccc(O)cc3)[C@H]2SC1	0.876 (inactive)
Cc1noc(C)c1S(=O)(=O)Nc1ccc2c(c1)C(=O)N([C@H](C)CO)C[C@H](C)[C@H](CN(C)Cc1ccncc1)O2	0.999 (inactive)
Cc1ccc(S(=O)(=O)Nc2ccc3c(c2)C(=O)N([C@@H](C)CO)C[C@H](C)[C@@H](CN(C)S(=O)(=O)c2cn(C)cn2)O3)cc1	0.932 (inactive)
C=CC1=C(C(=O)O)N2C(=O)[C@@H](NC(=O)/C(=N\O)c3csc(N)n3)[C@H]2SC1	0.0321 (active)
CO[C@@H]1CN(C)C(=O)c2cc(NC(=O)c3ccccc3)ccc2OC[C@@H](C)N(C(=O)CN(C)C)C[C@@H]1C	0.926 (inactive)

----------
- System: Escherichia coli K-12 BW25113;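 also: Wild-type cells incubated without shaking, value is the mean of two biological replicates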
- assay notes: relative growth (OD600 normalised to plate interquartile mean) (fraction); higher = less growth inhibition, active = 0.2 or less
- condition set: 50 µM; LB; incubation time: overnight (16-24 h)
Screen size: about 39,000 compounds; about 220 (0.56%) showed activity. What follows is part of a selection rich in actives, with near analogues and random picks from the rest.

molecule	relative growth
COc1ccccc1-c1cnc2c(c1)C(=O)N([C@@H](C)CO)C[C@@H](C)[C@H](CN(C)C(=O)c1cccnc1)O2	1.02
NC[C@H]1CCN(c2ccc(Oc3ccccc3)cc2)C1	0.669
Cc1noc(C)c1NC(=O)Nc1ccc2c(c1)C(=O)N([C@H](C)CO)C[C@@H](C)[C@@H](CN(C)C(=O)NC1CCCCC1)OCCCC[C@H](C)O2	1.02
NC(=O)[C@@H]1C(=O)C[C@@H]2C[C@@H]3Cc4cccc(O)c4C(=O)[C@@H]3C(=O)[C@]2(O)C1=O	0.164
CC1=C(/C=C/C(C)=C/C=C/C(C)=C/C(=O)O)C(C)(C)CCC1	0.987
Cc1ccc(S(=O)(=O)N(C)C[C@H]2OCCCC[C@@H](C)Oc3ccc(NC(=O)Nc4c(C)noc4C)cc3C(=O)N([C@@H](C)CO)C[C@@H]2C)cc1	0.961
COC1(NC(=O)C(C(=O)[O-])c2ccc(O)cc2)C(=O)N2C(C(=O)[O-])=C(CSc3nnnn3C)COC21.[Na+].[Na+] (stereo not drawn)	0.0483
CO/N=C(\C(=O)N[C@@H]1C(=O)N2C(C(=O)O)=C(C[n+]3ccn4ncccc43)CS[C@H]12)c1nsc(N)n1	0.0425
